Target: T1, human calcitonin receptor (human, UniProt P30988 25-474)
T1 construct: whole, on cells; Membranes of stably transfected cells; also called hCTR; hCT
T1 sequence (looked up): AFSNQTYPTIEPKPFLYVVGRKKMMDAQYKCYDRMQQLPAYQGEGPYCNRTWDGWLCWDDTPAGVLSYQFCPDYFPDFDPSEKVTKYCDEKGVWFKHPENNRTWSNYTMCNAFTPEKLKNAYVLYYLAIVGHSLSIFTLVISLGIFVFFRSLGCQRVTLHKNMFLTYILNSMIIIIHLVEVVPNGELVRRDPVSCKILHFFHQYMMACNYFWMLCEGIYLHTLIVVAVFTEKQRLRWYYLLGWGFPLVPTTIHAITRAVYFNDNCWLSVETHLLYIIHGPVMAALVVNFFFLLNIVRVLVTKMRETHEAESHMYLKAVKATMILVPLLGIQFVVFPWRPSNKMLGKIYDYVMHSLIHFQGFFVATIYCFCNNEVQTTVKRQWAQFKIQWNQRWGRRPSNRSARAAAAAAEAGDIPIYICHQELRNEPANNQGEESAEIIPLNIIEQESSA
Test: ratio of IC50 on human calcitonin receptor to IC50 on human amylin receptor (reference m42), SPA competition
Numbered stars: 1 amine (or outer) side, 2 acyl side, 3 side chain; on linkers, the order of the positions; unused ones are H or OH. Bridge positions count the residues as written; N and C are the ends. Side chains are listed from the residue outwards. Ends that are not written are not given here. * marks the point of attachment. C20 diacid = O=C(O)CCCCCCCCCCCCCCCCCCC(=O)*; γGlu = O=C(O)[C@H](CCC(=O)[*:2])N[*:1]
measure_name: Ratio hCT/hAmylin binding
Could you keep your reply to the number by itself?

Some binders with recorded Ratio hCT/hAmylin binding:
binder	Ratio hCT/hAmylin binding
K([γGlu-γGlu-C20 diacid])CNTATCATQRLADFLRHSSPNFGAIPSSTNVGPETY-NH2 (disulfide 2-7, Synthetic acylated analogue of human amylin)	49.8
K([γGlu-γGlu-C20 diacid])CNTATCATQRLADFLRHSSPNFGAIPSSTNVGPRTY-NH2 (disulfide 2-7, Synthetic acylated analogue of human amylin; also called compound 130)	280
K([γGlu-C20 diacid])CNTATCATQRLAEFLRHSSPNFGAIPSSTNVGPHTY-NH2 (disulfide 2-7, Synthetic acylated analogue of human amylin)	21.2

Let us examine a further case.
The recorded Ratio hCT/hAmylin binding for entry K([γGlu-γGlu-C20 diacid])CNTATCATQRLAEFLRHSSPNFGAIPSSTNVGPETY-NH2 (disulfide 2-7 (inferred), Synthetic acylated analogue of human amylin) equals 17.6
